Cited source for all entries: PubChem BioAssay (NCI)

Test system: NCI/ADR-RES ovarian
test_method_notes: NCI-60 one-dose screen, 48 h
condition_description: 10 µM unless noted
Compounds without any hit were thinned out: in the full panel of roughly 83,000, 20% have a hit. Active and inactive are the calls of the source. The calls were made as follows: active = growth percent below 10; inactive = the rest.
Outcomes: 1.0 for active, 0.0 for inactive

[
  {
    "molecule": "Cc1c(C(=O)NO)sc2ncnc(Nc3ccc(NC(=S)Nc4ccccc4)cc3)c12",
    "assigned_category": 0.0
  },
  {
    "molecule": "Nc1nc(N)nc(NCc2ccccc2)n1",
    "assigned_category": 0.0
  },
  {
    "molecule": "COc1ccc(C(O)c2cc3c(N)c(C(=O)Nc4cccc(Br)c4C)sc3nc2C)cc1 (stereo unspecified)",
    "assigned_category": 0.0
  },
  {
    "molecule": "CCC1(CC)NC(=O)c2c(c3ccc(Cl)c(Cl)c3n2C)C1C#N (stereo unspecified)",
    "assigned_category": 0.0
  },
  {
    "molecule": "C=C1C(=O)O[C@H]2[C@H]1CC/C(COC(=O)/C=C/c1c[nH]c3ccccc13)=C\\CC[C@@]1(C)O[C@@H]21",
    "assigned_category": 1.0
  },
  {
    "molecule": "C=C(C)[C@@H]1CC[C@]2(C(=O)NCC(=O)OC)CC[C@]3(C)[C@H](CC[C@@H]4[C@@]5(C)Cc6c([nH]c7ccccc67)C(C)(C)[C@@H]5CC[C@]43C)[C@@H]12",
    "assigned_category": 0.0
  },
  {
    "molecule": "O=C(OC(OC(=O)c1cc(Cl)cc(Cl)c1)c1cccc2ccccc12)c1ccccc1 (stereo unspecified)",
    "assigned_category": 0.0
  },
  {
    "molecule": "COc1ccc(Cn2nc(-c3ccccc3)c3c2CCc2cnoc2-3)cc1",
    "assigned_category": 0.0
  },
  {
    "molecule": "CCOC(=O)N1CCc2c(sc3nc4nc[nH]n4c(=O)c23)C1",
    "assigned_category": 0.0
  },
  {
    "molecule": "Cc1ccc(Nc2cc(=S)nc(N)[nH]2)cc1C",
    "assigned_category": 0.0
  },
  {
    "molecule": "CNC(=O)NCC1OC(n2cnc3c(NC(=O)Nc4ccccc4)ncnc32)C(O[Si](C)(C)C(C)(C)C)C1O[Si](C)(C)C(C)(C)C (stereo unspecified)",
    "assigned_category": 0.0
  },
  {
    "molecule": "Cc1ccc2[nH]c(=S)n(-c3ccc(S(=O)(=O)Nc4ccc(Cl)nn4)cc3)c(=O)c2c1",
    "assigned_category": 0.0
  },
  {
    "molecule": "CC(=O)[C@@H]1CC[C@]2(C(N)=O)CC[C@]3(C)[C@H](CC[C@@H]4[C@@]5(C)CCC(=O)C(C)(C)[C@@H]5CC[C@]43C)[C@@H]12",
    "assigned_category": 0.0
  },
  {
    "molecule": "COc1cc(/C=C2\\C(=O)N(Cc3ccc(Cl)cc3)c3ccccc32)cc(OC)c1OC",
    "assigned_category": 0.0
  },
  {
    "molecule": "CC1(C)CCCN1CCCN1c2ccccc2Sc2ccc(Cl)cc21",
    "assigned_category": 0.0
  },
  {
    "molecule": "Cc1cccc(Oc2ccc(Nc3ncnc4ccc(NC(=O)CN(C)C)cc34)cc2Cl)c1",
    "assigned_category": 0.0
  },
  {
    "molecule": "c1ccc(CCSc2ncnc3nc[nH]c23)cc1",
    "assigned_category": 0.0
  },
  {
    "molecule": "COc1ccc(Cl)cc1NC(=O)c1c(NC(=O)C(F)(F)C(F)(F)F)sc2c1CCCCC2",
    "assigned_category": 1.0
  },
  {
    "molecule": "Fc1ccc(C2CC(c3cccc(Nc4ccncc4)c3)=NN2c2ccccc2)cc1 (stereo unspecified)",
    "assigned_category": 0.0
  },
  {
    "molecule": "CS(=O)(=O)c1ccc(-c2cc3c(oc2=O)-c2ccccc2OC3O)cc1 (stereo unspecified)",
    "assigned_category": 0.0
  },
  {
    "molecule": "Cc1c2c(cc[n+]1Cc1ccc(F)cc1)c1ccc(OCc3cccc(F)c3)cc1n2Cc1cccc(F)c1",
    "assigned_category": 0.0
  }
]

----------
Test system: HCC-2998 colon
test_method_notes: NCI-60 one-dose screen, 48 h
condition_description: 10 µM unless noted
The panel holds about 83,000 compounds, 20% with a hit somewhere; the sample as a whole holds those more often. The source made the active and inactive calls. The calls were made as follows: active = growth percent below 10; inactive = the rest.
Outcomes: active, inactive

[
  {
    "compound": "COc1ccc(OC)c(/C=C/[C@H]2O[C@@H](C)[C@H](O)[C@@H]2O)c1",
    "experimental_system": "HCC-2998 colon",
    "assigned_category": "inactive"
  },
  {
    "compound": "COc1ccc(C(=O)c2cc3c(N)c(C(=O)Nc4cccc(Cl)c4)sc3nc2C)cc1",
    "experimental_system": "HCC-2998 colon",
    "assigned_category": "inactive"
  },
  {
    "compound": "O=C(O)c1cn(C2CC2)c2cc(N3CCN(C(=O)C[n+]4cccc5ccccc54)CC3)c(F)cc2c1=O",
    "experimental_system": "HCC-2998 colon",
    "assigned_category": "inactive"
  },
  {
    "compound": "Cc1ccc(-c2csc(/N=C3\\C(=O)Nc4ccccc43)n2)cc1",
    "experimental_system": "HCC-2998 colon",
    "assigned_category": "active"
  },
  {
    "compound": "NC(=O)c1ccc[n+](CC(=O)N2CCN(c3cc4c(cc3F)c(=O)c(C(=O)O)cn4C3CC3)CC2)c1",
    "experimental_system": "HCC-2998 colon",
    "assigned_category": "inactive"
  },
  {
    "compound": "Cc1cc(NC(=O)c2cnc(N3CCN(CCOCCOCCOCCOCCC(=O)N[C@H](C(=O)N4C[C@H](O)C[C@H]4C(=O)N[C@@H](C)c4ccc(-c5scnc5C)cc4)C(C)(C)C)CC3)cn2)c2ncccc2c1",
    "experimental_system": "HCC-2998 colon",
    "assigned_category": "active"
  },
  {
    "compound": "CN1CCN(CC#CCNC(=O)[C@]23CCC(C)(C)C[C@H]2C2=CC[C@@H]4[C@@]5(C)Cc6c([nH]c7ccccc67)C(C)(C)[C@@H]5CC[C@@]4(C)[C@]2(C)CC3)CC1",
    "experimental_system": "HCC-2998 colon",
    "assigned_category": "inactive"
  },
  {
    "compound": "CCOC(=O)c1ccc(Nc2ccnc(SCC(=O)c3ccc(C#N)cc3)n2)cc1",
    "experimental_system": "HCC-2998 colon",
    "assigned_category": "inactive"
  },
  {
    "compound": "Nc1c(C(=O)Nc2cccc3ccncc23)sc2nc3c(cc12)C(=O)CCC3",
    "experimental_system": "HCC-2998 colon",
    "assigned_category": "inactive"
  },
  {
    "compound": "O=C1CCCN1c1cccc2cccnc12",
    "experimental_system": "HCC-2998 colon",
    "assigned_category": "inactive"
  },
  {
    "compound": "COc1cc2c(cc1[N+](=O)[O-])-c1ccc([N+](=O)[O-])cc1/C2=N\\O",
    "experimental_system": "HCC-2998 colon",
    "assigned_category": "inactive"
  },
  {
    "compound": "CCCCCCCCOC(=O)c1ccc(O)c(OC)c1",
    "experimental_system": "HCC-2998 colon",
    "assigned_category": "inactive"
  },
  {
    "compound": "COc1cc(C(=O)/C=C/c2c(C)n([O-])c3ccc(Cl)cc3[n+]2=O)cc(OC)c1OC",
    "experimental_system": "HCC-2998 colon",
    "assigned_category": "inactive"
  },
  {
    "compound": "c1ccc(CCSc2ncnc3nc[nH]c23)cc1",
    "experimental_system": "HCC-2998 colon",
    "assigned_category": "inactive"
  },
  {
    "compound": "CN(C)C(=O)OCc1nc2c(N3CCOCC3)nc(-c3ccccc3)nc2n1C",
    "experimental_system": "HCC-2998 colon",
    "assigned_category": "active"
  },
  {
    "compound": "N/C(=N\\N=C\\c1cc2ccccc2s1)N/N=C/c1cc2ccccc2s1",
    "experimental_system": "HCC-2998 colon",
    "assigned_category": "inactive"
  },
  {
    "compound": "CCCC/C(=N\\N=C(N)N)c1ccc(F)cc1",
    "experimental_system": "HCC-2998 colon",
    "assigned_category": "inactive"
  },
  {
    "compound": "Cc1ccccc1C(c1ccccc1)c1ccccc1C",
    "experimental_system": "HCC-2998 colon",
    "assigned_category": "inactive"
  },
  {
    "compound": "COc1nc(N)nc(-n2c(-c3ccc(C)cc3)nc3ccccc32)c1NCc1ccc(C)cc1",
    "experimental_system": "HCC-2998 colon",
    "assigned_category": "inactive"
  },
  {
    "compound": "COc1ccc(-c2nc(N/N=C/c3cccc(O)c3)nc(N3CCOCC3)c2C#N)cc1",
    "experimental_system": "HCC-2998 colon",
    "assigned_category": "inactive"
  },
  {
    "compound": "CCc1nc(C)cn1C(=O)OCc1nc2nc(Cl)nc(N3CCOCC3)c2[nH]1",
    "experimental_system": "HCC-2998 colon",
    "assigned_category": "inactive"
  },
  {
    "compound": "COc1cc(C2CC(c3cccc(Nc4ccncc4)c3)=NN2C(C)=O)cc(OC)c1OC (stereo unspecified)",
    "experimental_system": "HCC-2998 colon",
    "assigned_category": "inactive"
  },
  {
    "compound": "O=C(O)C(/C=C/c1ccco1)=N\\Nc1nc(-c2ccc(Cl)cc2)cs1",
    "experimental_system": "HCC-2998 colon",
    "assigned_category": "inactive"
  },
  {
    "compound": "CC(C)(C)OC(=O)N1CCN(c2ccc(N)cc2)C(=O)C1",
    "experimental_system": "HCC-2998 colon",
    "assigned_category": "inactive"
  },
  {
    "compound": "C#Cc1cccc(NC(=O)Nc2ccc(NC(=O)CCl)cc2)c1",
    "experimental_system": "HCC-2998 colon",
    "assigned_category": "inactive"
  },
  {
    "compound": "Cn1c(=O)c2[nH]c(CCCc3nc4c([nH]3)c(=O)n(C)c(=O)n4C)nc2n(C)c1=O",
    "experimental_system": "HCC-2998 colon",
    "assigned_category": "inactive"
  }
]
